assay-comment: Bioanalysis of brain and plasma samples (exposure, UPLC-MS/MS)
Format: in vivo, rat
recorded-conditions: male, Sprague Dawley, brain/plasma, po; rat, 10 mg/kg p.o., 3 hours post dose; read-out: Brain/Plasma ratio
measurement-label: Kp at 3 h
Lab note: jot down the number only; don't add units.

Which Kp at 3 h value belongs to COc1cnc(C(=O)Nc2cc(F)c(F)c([C@@]3(CF)N=C(N)CCC3(F)F)c2)cn1 [Compound 11] ?
1.8

====

assay-comment: Bioanalysis of brain and plasma samples (exposure, UPLC-MS/MS)
Assay type: in vivo, rat
recorded-conditions: male, Sprague Dawley, po; rat plasma, 30 mg/kg p.o., 3 hours post dose; read-out: Exp
measurement-label: concentration at 3 h (ng/g)
Please give a number only; it is taken to be in ng/g.

Which concentration at 3 h value belongs to `COc1cnc(C(=O)Nc2cc(F)c(F)c([C@@]3(CF)N=C(N)CCC3(F)F)c2)cn1` ?
3290

====

Tested on: P-gp (MDR1)
assay-comment: MDCK-MDR1 assay (permeability / Pgp efflux)
Format: in vitro ADME
recorded-conditions: dog, Papp BA/Papp AB, Pgp substrate when ≥2
Label scheme for efflux ratio at 60 min, 0.5 μM: band 1 = under 2, band 2 = from 2 up to 3, band 3 = 3 and over

Consider the worked cases shown below.
compound="COc1ccc(C(=O)Nc2cc(F)c(F)c([C@@]3(CF)N=C(N)CCC3(F)F)c2)nc1 [Compound 15]" label="band 1"
compound="N#Cc1ccc(C(=O)Nc2ccc(F)c([C@@]3(CF)N=C(N)CCC3(F)F)c2)nc1 [Compound 6]" label="band 2"
compound="[2H]C([2H])([2H])Oc1ccc(C(=O)Nc2cc(F)c(F)c([C@@]3(CF)N=C(N)CCC3(F)F)c2)nc1 [Compound 16]" label="band 1"
compound="NC1=N[C@](CF)(c2cc(NC(=O)c3ccc(Cl)cn3)ccc2F)C(F)(F)CC1 [Compound 1]" label="band 1"
compound="NC1=N[C@](CF)(c2cc(NC(=O)c3ccc(F)cn3)ccc2F)C(F)(F)CC1 [Compound 2]" label="band 2"
compound="COc1cnc(C(=O)Nc2ccc(F)c([C@@]3(CF)N=C(N)CCC3(F)F)c2)cn1 [Compound 3]" label="band 2"

Category of Cc1cc(C#N)cnc1C(=O)Nc1cc(F)c(F)c([C@@]2(CF)N=C(N)CCC2(F)F)c1 [Compound 17] , please.
band 2

Another compound to look at: NC1=N[C@](CF)(c2cc(NC(=O)c3ccc(Cl)cn3)cc(F)c2F)C(F)(F)CC1 [Compound 13]
band 1

Another compound to look at: Cc1nc(C(=O)Nc2ccc(F)c([C@@]3(CF)N=C(N)CCC3(F)F)c2)co1 [Compound 7]
band 3

Another compound to look at: Cc1nc(C(=O)Nc2cc(F)c(F)c([C@@]3(CF)N=C(N)CCC3(F)F)c2)co1 [Compound 10]
band 3

Another compound to look at: COc1cnc(C(=O)Nc2cc(F)c(F)c([C@@]3(CF)N=C(N)CCC3(F)F)c2)cn1 [Compound 11]
band 1

Another compound to look at: COc1cnc(C(=O)Nc2ccc(F)c([C@@]3(CF)N=C(N)CCC3(F)F)c2)nc1 [Compound 8]
band 3

Another compound to look at: N#Cc1ccc(C(=O)Nc2cc(F)c(F)c([C@@]3(CF)N=C(N)CCC3(F)F)c2)nc1 [Compound 14]
band 1

Another compound to look at: NC1=N[C@](CF)(c2cc(NC(=O)c3ccc(F)cn3)cc(F)c2F)C(F)(F)CC1 [Compound 12]
band 1

Another compound to look at: NC1=N[C@](CF)(c2cc(NC(=O)c3coc(C(F)F)n3)ccc2F)C(F)(F)CC1 [Compound 5]
band 3

Another compound to look at: NC1=N[C@](CF)(c2cc(NC(=O)c3cnc(C(F)F)cn3)ccc2F)C(F)(F)CC1 [Compound 9]
band 1

Another compound to look at: NC1=N[C@](CF)(c2cc(NC(=O)c3ccn(C(F)F)n3)ccc2F)C(F)(F)CC1 [Compound 4]
band 3

Another compound to look at: NC1=N[C@](CF)(c2cc(NC(=O)c3ccc(Br)cn3)ccc2F)C(F)(F)CC1 [Compound 19]
band 1

====

assay-comment: Bioanalysis of brain and plasma samples (exposure, UPLC-MS/MS)
Format: in vivo, rat
recorded-conditions: male, Sprague Dawley, po; rat plasma, 10 mg/kg p.o., 3 hours post dose; read-out: Exp
measurement-label: concentration at 3 h (ng/g)
Please give a number only; it is taken to be in ng/g.

Which concentration at 3 h value belongs to `COc1cnc(C(=O)Nc2cc(F)c(F)c([C@@]3(CF)N=C(N)CCC3(F)F)c2)cn1` ?
1120

====

assay-comment: Bioanalysis of brain and plasma samples (exposure, UPLC-MS/MS)
Type: in vivo, rat
recorded-conditions: male, Sprague Dawley, po; rat brain, 30 mg/kg p.o., 3 hours post dose; read-out: Exp
measurement-label: concentration at 3 h

Which concentration at 3 h value belongs to `COc1cnc(C(=O)Nc2cc(F)c(F)c([C@@]3(CF)N=C(N)CCC3(F)F)c2)cn1` ?
4210 ng/g

====

pKi overview
experimental-system: BACE1 (Homo sapiens (Human), UniProt P56817)
Sequence (P56817 46-501): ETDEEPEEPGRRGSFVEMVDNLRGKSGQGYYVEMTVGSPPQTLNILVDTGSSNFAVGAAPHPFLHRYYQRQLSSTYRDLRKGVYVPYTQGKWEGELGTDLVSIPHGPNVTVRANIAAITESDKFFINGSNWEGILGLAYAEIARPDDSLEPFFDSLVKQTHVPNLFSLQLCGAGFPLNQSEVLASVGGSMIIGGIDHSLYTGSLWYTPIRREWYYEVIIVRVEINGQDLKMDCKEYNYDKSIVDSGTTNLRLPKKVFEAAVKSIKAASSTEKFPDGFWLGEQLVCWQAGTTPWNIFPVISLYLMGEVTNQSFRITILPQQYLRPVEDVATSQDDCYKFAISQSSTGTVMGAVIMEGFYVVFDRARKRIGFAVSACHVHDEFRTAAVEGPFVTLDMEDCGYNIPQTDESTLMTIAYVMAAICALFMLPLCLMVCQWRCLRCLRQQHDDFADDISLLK
pKi field: float, defined as -log10 of concentration (mol/L).

smiles=NC1=N[C@](CF)(c2cc(NC(=O)c3ccc(Br)cn3)ccc2F)C(F)(F)CC1 measurement=7.96
smiles=N#Cc1ccc(C(=O)Nc2ccc(F)c([C@@]3(CF)N=C(N)CCC3(F)F)c2)nc1 measurement=7.70
smiles=COc1cnc(C(=O)Nc2cc(F)c(F)c([C@@]3(CF)N=C(N)CCC3(F)F)c2)cn1 measurement=7.85
smiles=Cc1nc(C(=O)Nc2ccc(F)c([C@@]3(CF)N=C(N)CCC3(F)F)c2)co1 measurement=7.49
smiles=Cc1nc(C(=O)Nc2cc(F)c(F)c([C@@]3(CF)N=C(N)CCC3(F)F)c2)co1 measurement=7.26

Please provide the recorded pKi for `[2H]C([2H])([2H])Oc1ccc(C(=O)Nc2cc(F)c(F)c([C@@]3(CF)N=C(N)CCC3(F)F)c2)nc1` , tested on BACE1 (Homo sapiens (Human), UniProt P56817).
7.68

====

assay-comment: Bioanalysis of brain and plasma samples (exposure, UPLC-MS/MS)
Format: in vivo, rat
recorded-conditions: male, Sprague Dawley, brain/plasma, po; rat, 30 mg/kg p.o., 3 hours post dose; read-out: Brain/Plasma ratio
measurement-label: Kp at 3 h
Lab note: jot down the number only; don't add units.

Which Kp at 3 h value belongs to `COc1cnc(C(=O)Nc2cc(F)c(F)c([C@@]3(CF)N=C(N)CCC3(F)F)c2)cn1` ?
1.3

====

assay-comment: Bioanalysis of brain and plasma samples (exposure, UPLC-MS/MS)
Assay type: in vivo, rat
recorded-conditions: male, Sprague Dawley, po; rat brain, 10 mg/kg p.o., 3 hours post dose; read-out: Exp
measurement-label: concentration at 3 h (ng/g)
Please give a number only; it is taken to be in ng/g.

Which concentration at 3 h value belongs to COc1cnc(C(=O)Nc2cc(F)c(F)c([C@@]3(CF)N=C(N)CCC3(F)F)c2)cn1 [Compound 11] ?
1760

====

inhibition at 10 µM overview
experimental-system: BACE1 (Homo sapiens (Human), UniProt P56817)
assay-comment: BACE1 efficacy assay (FRET-based, commercial BACE1 kit)
Assay type: biochemical
recorded-conditions: 10 μM test compound
Method: The efficacy assay was performed as a FRET-based assay using a commercially available BACE1 kit (Life Technologies, P2985). 2 μl test compound at 10 μM (final concentration) and 15 μl BACE1 enzyme from the kit (final concentration 3 nM) were preincubated for 15 minutes at room temperature before addition of 15 μl of substrate from the kit (250 nM final concentration) and incubated for additional 90 minutes at room temperature. The assay plate was subsequently read in a Pherastar (Ex540/Em590). […]
# answer = value followed by unit

Here are 3 molecules together with their reported answers.
smiles=[2H]C([2H])([2H])Oc1ccc(C(=O)Nc2cc(F)c(F)c([C@@]3(CF)N=C(N)CCC3(F)F)c2)nc1 measurement_label="inhibition at 10 µM" measurement=106%
smiles=[2H]C([2H])([2H])Oc1ccc(C(=O)Nc2ccc(F)c([C@@]3(CF)N=C(N)CCC3(F)F)c2)nc1 measurement_label="inhibition at 10 µM" measurement=109%
smiles=N#Cc1ccc(C(=O)Nc2cc(F)c(F)c([C@@]3(CF)N=C(N)CCC3(F)F)c2)nc1 measurement_label="inhibition at 10 µM" measurement=103%

From here, focus on the item given below.
Which inhibition at 10 µM value belongs to `NC1=N[C@](CF)(c2cc(NC(=O)c3coc(C(F)F)n3)ccc2F)C(F)(F)CC1` ?
102%

====

inhibition at 10 µM overview
experimental-system: BACE1 (Homo sapiens (Human), UniProt P56817)
assay-comment: BACE1 efficacy assay (FRET-based, commercial BACE1 kit)
Format: biochemical
recorded-conditions: 10 μM test compound
Please give a number only; it is taken to be in %.

Here are 3 molecules together with their reported answers.
smiles=Cc1cc(C#N)cnc1C(=O)Nc1cc(F)c(F)c([C@@]2(CF)N=C(N)CCC2(F)F)c1 measurement=111
smiles=Cc1nc(C(=O)Nc2cc(F)c(F)c([C@@]3(CF)N=C(N)CCC3(F)F)c2)co1 measurement=102
smiles=COc1ccc(C(=O)Nc2cc(F)c(F)c([C@@]3(CF)N=C(N)CCC3(F)F)c2)nc1 measurement=106

Which inhibition at 10 µM value belongs to `NC1=N[C@](CF)(c2cc(NC(=O)c3ccc(Cl)cn3)ccc2F)C(F)(F)CC1` ?
104

Another molecule to look at: `COc1cnc(C(=O)Nc2ccc(F)c([C@@]3(CF)N=C(N)CCC3(F)F)c2)cn1`
104

Another molecule to look at: `N#Cc1ccc(C(=O)Nc2ccc(F)c([C@@]3(CF)N=C(N)CCC3(F)F)c2)nc1`
103

meta.source: patent US10058540B2
